# TARGET_OF_ASSAY: choline-O-sulfatase (COS) (Sinorhizobium meliloti, UniProt O69787)
# Construct: full length, C-terminal His6 tag kept, pET26b+, codon-optimized gene, E. coli BL21(DE3); 59 kDa, homodimer (123 kDa); active-site Cys54 unmodified (no formylglycine)
# Sequence (O69787 whole entry): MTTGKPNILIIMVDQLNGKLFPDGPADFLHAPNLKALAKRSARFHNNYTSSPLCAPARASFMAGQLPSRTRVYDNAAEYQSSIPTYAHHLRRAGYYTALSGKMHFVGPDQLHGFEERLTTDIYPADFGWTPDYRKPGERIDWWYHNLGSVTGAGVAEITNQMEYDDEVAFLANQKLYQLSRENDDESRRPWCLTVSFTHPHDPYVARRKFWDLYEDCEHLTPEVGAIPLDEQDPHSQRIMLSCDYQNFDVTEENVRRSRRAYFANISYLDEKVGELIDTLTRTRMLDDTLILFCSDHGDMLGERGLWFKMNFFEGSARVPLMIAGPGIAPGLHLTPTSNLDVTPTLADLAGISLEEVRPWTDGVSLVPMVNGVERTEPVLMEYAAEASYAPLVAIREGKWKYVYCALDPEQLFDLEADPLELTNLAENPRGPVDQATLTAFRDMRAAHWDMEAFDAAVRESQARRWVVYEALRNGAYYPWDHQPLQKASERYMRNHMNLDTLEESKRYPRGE
# ASSAY_COMMENT: spectrophotometric pNPS hydrolysis, […] nm
MEASURE_NAME: pKi
Here pKi is given on a logarithmic scale as minus log10 of the concentration in mol/L.

### Prompt // map C[N+](C)(C)CCO to recorded pKi (system: choline-O-sulfatase (COS) (Sinorhizobium meliloti, UniProt O69787))
### Response 1.24
